# testDetails: In vivo pharmacokinetics (plasma, HPLC)
# details: intravenous, mouse, tail vein, 5 mg/kg GL
readoutLabel: half-life

Returns the measured half-life for the input compound. Input: CC1(C)[C@@H](O[C@H]2O[C@H](C(=O)O)[C@@H](O)[C@H](O)[C@H]2O[C@@H]2O[C@H](C(=O)O)[C@@H](O)[C@H](O)[C@H]2O)CC[C@]2(C)[C@H]3C(=O)C=C4[C@@H]5C[C@@](C)(C(=O)O)CC[C@]5(C)CC[C@@]4(C)[C@]3(C)CC[C@@H]12 [GL, Glycyrrhizin] ~4 min
